Origin of measurements: patent US8426429B2

- assay-target: β-secretase (BACE) (Homo sapiens)
- Construct: purchased Panvera
- Sequence (P56817 46-501): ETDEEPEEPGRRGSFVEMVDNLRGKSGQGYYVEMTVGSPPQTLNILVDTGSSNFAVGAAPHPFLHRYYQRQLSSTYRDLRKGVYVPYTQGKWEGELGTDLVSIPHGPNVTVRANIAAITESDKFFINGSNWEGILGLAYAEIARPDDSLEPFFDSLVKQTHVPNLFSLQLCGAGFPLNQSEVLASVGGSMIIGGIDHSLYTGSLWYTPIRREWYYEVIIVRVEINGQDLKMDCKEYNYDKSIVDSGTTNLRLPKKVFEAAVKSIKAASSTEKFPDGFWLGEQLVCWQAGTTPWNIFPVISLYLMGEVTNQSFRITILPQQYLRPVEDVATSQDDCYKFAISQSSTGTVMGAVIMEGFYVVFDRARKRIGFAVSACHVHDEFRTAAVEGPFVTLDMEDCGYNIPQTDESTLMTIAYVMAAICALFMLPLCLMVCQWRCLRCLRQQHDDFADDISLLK
- experimental-protocol: BACE FS1 % Inhibition Assay
- Assay type: biochemical
- protocol-conditions: 1 μM test compound
reported-property: % Inhibition (FS)

Indicate its recorded % Inhibition (FS); the compound in question is "CC(C)(C)C(=O)NCCN1Cc2cc(-c3ccccc3F)ccc2N=C1N"
72%

Indicate its recorded % Inhibition (FS); the compound in question is "CS(=O)(=O)Nc1ccccc1-c1ccc2c(c1)CN(CCNC(=O)C1CCCCC1)C(N)=N2"
<30%

Indicate its recorded % Inhibition (FS); the compound in question is "CC(=O)Nc1cccc(-c2ccc3c(c2)CN(Cc2cccc(C(=O)N(C)C4CCCCC4)c2)C(N)=N3)c1"
37%

Indicate its recorded % Inhibition (FS); the compound in question is "CN(C(=O)c1cccc(CN2Cc3cc(Nc4ccc(C5CCCCC5)cc4)ccc3N=C2N)c1)C1CCCCC1"
<30%

Indicate its recorded % Inhibition (FS); the compound in question is "Cc1cc(C(=O)NCCN2Cc3cc(-c4ccccc4)ccc3N=C2N)c(C)o1"
<30%

Indicate its recorded % Inhibition (FS); the compound in question is "CCCN(CC1CC1)C(=O)c1cccc(CN2Cc3cc(Oc4ccccc4)ccc3N=C2N)c1"
<30%

Indicate its recorded % Inhibition (FS); the compound in question is "CCc1ccccc1Sc1ccc2c(c1)CN(Cc1cccc(C(=O)N(C)C3CCCCC3)c1)C(N)=N2"
<30%

Then there is this compound:
Indicate its recorded % Inhibition (FS); the compound in question is COc1ccc(-c2ccc3c(c2)CN(C(CCC(=O)N(C)C2CCCCC2)C2CCCCC2)C(N)=N3)cc1 (centres unmarked)
<30%
